System: Klebsiella pneumoniae
testMethodNotes: microbe, parasite or virus in culture
Type: functional
statedConditions: read-out: IZ
quantityMeasured: zone of inhibition at 6.25 µg/mL (mm)
Only the number, expressed in mm, is required.

These recorded examples may help you get a feel for the data.
Clc1cc(Cl)c(Cl)c(-c2nnc3sc(COc4ccccc4)nn23)c1 = 16
NC(=O)c1cc(C2=Nn3c(nnc3-c3cc(Cl)cc(Cl)c3Cl)SC2)ccc1O = 16
Clc1cc(Cl)c(Cl)c(-c2nnc3n2N=C(c2ccccc2)CS3)c1 = 16

# assay system Klebsiella pneumoniae: give zone of inhibition at 6.25 µg/mL of "Clc1cc(Cl)cc(-c2nn3c(-c4cc(Cl)cc(Cl)c4Cl)nnc3s2)c1"
16

Retrieve zone of inhibition at 6.25 µg/mL on Klebsiella pneumoniae; query "Clc1cc(Cl)c(Cl)c(-c2nnc3sc(-c4ccncc4Br)nn23)c1"
16

State measured zone of inhibition at 6.25 µg/mL of the molecule "Clc1ccc(C2=Nn3c(nnc3-c3cc(Cl)cc(Cl)c3Cl)SC2)cc1" with Klebsiella pneumoniae.
16

Name the recorded zone of inhibition at 6.25 µg/mL of "COc1ccc(C2=Nn3c(nnc3-c3cc(Cl)cc(Cl)c3Cl)SC2)cc1" , assay system Klebsiella pneumoniae.
16

GET zone of inhibition at 6.25 µg/mL where system = Klebsiella pneumoniae and item = "CSc1ccc(C2=Nn3c(nnc3-c3cc(Cl)cc(Cl)c3Cl)SC2)cc1"
16

Jot down zone of inhibition at 6.25 µg/mL (Klebsiella pneumoniae) of "Clc1cc(Cl)c(Cl)c(-c2nnc3sc(-c4ccncc4)nn23)c1" .
16

====

System: Trichophyton mentagrophytes
testMethodNotes: Antifungal activity against Trichophyton mentagrophytes by serial plate dilution method
Assay type: functional
quantityMeasured: MIC (µg/mL)
Please state the figure in µg/mL; there is no need to write the unit.

Clc1cc(Cl)c(Cl)c(-c2nnc3sc(-c4cccc5ncccc45)nn23)c1 = 6.25
Cc1ccc(C2=Nn3c(nnc3-c3cc(Cl)cc(Cl)c3Cl)SC2)cc1 = 6.25
CSc1ccc(C2=Nn3c(nnc3-c3cc(Cl)cc(Cl)c3Cl)SC2)cc1 = 6.25

Give the measured MIC for "COc1ccc(C2=Nn3c(nnc3-c3cc(Cl)cc(Cl)c3Cl)SC2)cc1"
6.25

Consider the molecule "COc1ccc(-c2nn3c(-c4cc(Cl)cc(Cl)c4Cl)nnc3s2)cc1" . State its measured MIC.
6.25

Specify measured MIC for "Clc1cc(Cl)cc(-c2nn3c(-c4cc(Cl)cc(Cl)c4Cl)nnc3s2)c1" .
6.25

Supply reported MIC belonging to this molecule: "Clc1cc(Cl)c(Cl)c(-c2nnc3sc(-c4cccc5cnccc45)nn23)c1"
25

For "Clc1cc(Cl)c(Cl)c(-c2nnc3n2N=C(c2ccccc2)CS3)c1" , write its MIC.
12

Note MIC for the molecule shown: Cc1cc(C2CCCCC2)n(O)c(=O)c1.NCCO [CICLOPIROX OLAMINE]
3.12

// Input: "Clc1cc(Cl)c(Cl)c(-c2nnc3sc(-c4ccncc4)nn23)c1" . Output its MIC only.
6.25

Return MIC for the following molecule: "Clc1cc(Cl)c(Cl)c(-c2nnc3sc(-c4ccncc4Br)nn23)c1"
6.25

Given the molecule "Cc1ccc(-c2nn3c(-c4cc(Cl)cc(Cl)c4Cl)nnc3s2)cc1" , write its reported MIC.
12

Supply MIC value. Item: "Clc1cc(Cl)c(Cl)c(-c2nnc3sc(COc4ccccc4)nn23)c1"
12

Recall and state the measured MIC for "Clc1cc(Cl)c(Cl)c(-c2nnc3sc(-c4ccccc4)nn23)c1" .
6.25

Output MIC of "Cc1cc(C)cc(-c2nn3c(-c4cc(Cl)cc(Cl)c4Cl)nnc3s2)c1"
6.25

Please report MIC for the following molecule: "NC(=O)c1cc(C2=Nn3c(nnc3-c3cc(Cl)cc(Cl)c3Cl)SC2)ccc1O"
6.25

Supply recorded MIC for "Clc1ccc(C2=Nn3c(nnc3-c3cc(Cl)cc(Cl)c3Cl)SC2)cc1" here.
6.25
